Target: N-terminally GST-tagged DLK (catalytic domain amino acid 1-520) (Homo sapiens, UniProt Q12852)
Construct: N-terminally GST-tagged DLK (catalytic domain amino acid 1-520)
Sequence (Q12852 1-520): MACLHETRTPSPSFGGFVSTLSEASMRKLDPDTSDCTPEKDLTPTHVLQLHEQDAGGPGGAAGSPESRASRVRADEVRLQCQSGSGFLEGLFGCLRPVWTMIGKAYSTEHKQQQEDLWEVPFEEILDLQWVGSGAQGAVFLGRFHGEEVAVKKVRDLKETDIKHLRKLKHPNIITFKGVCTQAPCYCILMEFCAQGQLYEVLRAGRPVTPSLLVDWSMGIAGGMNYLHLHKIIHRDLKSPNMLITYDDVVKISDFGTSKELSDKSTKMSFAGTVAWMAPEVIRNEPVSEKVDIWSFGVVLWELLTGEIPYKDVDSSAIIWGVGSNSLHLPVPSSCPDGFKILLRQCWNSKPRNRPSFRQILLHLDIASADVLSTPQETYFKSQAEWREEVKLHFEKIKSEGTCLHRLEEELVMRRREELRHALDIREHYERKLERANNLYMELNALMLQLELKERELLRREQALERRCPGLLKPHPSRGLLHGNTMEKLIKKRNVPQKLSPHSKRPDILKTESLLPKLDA
Experiment: DLK TR-FRET inhibition assay
Conditions: 5 nM GST-DLK, 40 nM HIS-MKK4 K131M substrate, 30 μM ATP, 60 minutes at ambient temperature
Entries annotated with measured Ki
Give the value, in units of nM, as a plain number.

Previously resolved entries follow.
substance_smiles: CC(C)n1nc(-c2cnc(N)c(OC(F)(F)F)c2)cc1[C@H]1[C@@H]2C[C@H](N3C[C@H]4C[C@@H]3CO4)C[C@@H]21
Ki (nM): 4.81

substance_smiles: CC(C)n1nc(-c2cnc(N)c(OC(F)(F)F)c2)cc1[C@H]1[C@@H]2C[C@@H](N3CCCN(C)CC3)C[C@@H]21
Ki (nM): 0.9

Problem: // returns reported Ki for input CC(C)n1nc(-c2cnc(N)c(OC(F)F)c2)cc1[C@H]1[C@@H]2C[C@H](N3CCOCC3)C[C@@H]21
Result: 1.6
